Test system: MDA-MB-468
Test: phospho-S6 immunofluorescence (DAPI-normalised), per-plate z-score; higher = higher phospho-S6 signal (less pathway suppression)
Settings: co-treatment: vehicle; 24 h
Where a name gives a salt, the structure may show the parent alone.
# maps each entry to its phospho-S6 immunofluorescence (z-score)
Give the figure by itself; no unit, no explanation.

Guide cases for phospho-S6 immunofluorescence (z-score), answers given:
[
  {
    "molecule": "O=C(c1ccc(F)cc1)N1CCC[C@H](c2nc(-c3ccc(F)cc3)no2)C1 (compound 10 µM)",
    "phospho-S6 immunofluorescence (z-score)": -2.93
  },
  {
    "molecule": "c1ccc2c(c1)CCCC2C1=NCCN1 (stereo not drawn) [Tetrahydrozoline (hydrochloride)] (compound 10 µM)",
    "phospho-S6 immunofluorescence (z-score)": 0.75
  },
  {
    "molecule": "O=C1O[C@]2(CC[C@H](C(=O)Nc3ccn(-c4ccccc4F)n3)CC2)c2cnccc21 (compound 10 µM)",
    "phospho-S6 immunofluorescence (z-score)": 0.3
  },
  {
    "molecule": "CC(C)NCC(O)c1ccc(NS(C)(=O)=O)cc1 (stereo not drawn) [Sotalol (hydrochloride)] (compound 10 µM)",
    "phospho-S6 immunofluorescence (z-score)": 0.37
  },
  {
    "molecule": "C[C@H](CCC(=O)O)[C@H]1CC[C@H]2[C@@H]3CC[C@@H]4C[C@H](O)CC[C@]4(C)[C@H]3C[C@H](O)[C@]12C [Deoxycholic acid] (compound 10 µM)",
    "phospho-S6 immunofluorescence (z-score)": -0.17
  },
  {
    "molecule": "C[C@H]1C[C@H]2[C@@H]3CCC4=CC(=O)C=C[C@]4(C)[C@@]3(F)[C@@H](O)C[C@]2(C)[C@@]1(O)C(=O)CO [Betamethasone] (compound 10 µM)",
    "phospho-S6 immunofluorescence (z-score)": -0.96
  },
  {
    "molecule": "CCN(CC)CCNC(=O)c1cc(Cl)c(N)cc1OC [Metoclopramide] (compound 10 µM)",
    "phospho-S6 immunofluorescence (z-score)": -0.11
  },
  {
    "molecule": "Cc1ccc(C(=O)Nc2ccc(S(=O)(=O)O)c3cc(S(=O)(=O)O)cc(S(=O)(=O)O)c23)cc1NC(=O)c1cccc(NC(=O)Nc2cccc(C(=O)Nc3cc(C(=O)Nc4ccc(S(=O)(=O)O)c5cc(S(=O)(=O)O)cc(S(=O)(=O)O)c45)ccc3C)c2)c1 [Suramin (sodium salt)] (compound 10 µM)",
    "phospho-S6 immunofluorescence (z-score)": -0.09
  },
  {
    "molecule": "Cc1cc(C(C)(C)C)cc(C)c1CC1=NCCN1 [Xylometazoline (hydrochloride)] (compound 10 µM)",
    "phospho-S6 immunofluorescence (z-score)": -0.38
  },
  {
    "molecule": "COc1cc2c(cc1OC)-c1cc3ccc4c(c3c[n+]1CC2)OCO4 [Epiberberine (chloride)] (compound 10 µM)",
    "phospho-S6 immunofluorescence (z-score)": 1.66
  }
]

Exam item: Give phospho-S6 immunofluorescence (z-score) for NCCc1ccc(O)c(O)c1 [Dopamine (hydrochloride)] (compound 10 µM) tested on MDA-MB-468.
Marked response: 0.15

Exam item: Look up MDA-MB-468 data: phospho-S6 immunofluorescence (z-score) of COc1ccccc1N1CCN(CC(O)COc2cccc3ccccc23)CC1 (stereo not drawn) [Naftopidil] (compound 10 µM) , then report it.
Marked response: 0.64

Exam item: Report phospho-S6 immunofluorescence (z-score) from MDA-MB-468 testing of C[N+]1(C)[C@@H]2C[C@@H](OC(=O)C(O)(c3cccs3)c3cccs3)C[C@H]1[C@@H]1O[C@@H]12 [Tiotropium (Bromide)] (compound 10 µM)
Marked response: -0.69
